test system: IGROV1 ovarian; test: NCI tumour cell line growth inhibition, 48 h
Recorded GI50 by entry

Q: Complete the entry with GI50 for "CCCCCCCCCCCCCCCc1cc(O)ccc1N"
A: 0.416 µM

Q: Please report GI50 for the following compound: "Nc1cc(-c2ccccc2)ccc1O"
A: > 100 µM

Q: Quote GI50 reported for "CCC[C@H](N[C@@H]1CCc2cc(F)cc(F)c2C1)C(=O)Nc1cn(C(C)(C)CNCC(C)(C)C)cn1" please.
A: 28.6 µM

Q: Consider the compound "O=C1c2ccccc2C(=O)N1c1ccc(S(=O)(=O)Nc2ncccn2)cc1" . State its measured GI50.
A: > 100 µM

====

system: TK-10 renal; experiment: NCI tumour cell line growth inhibition, 48 h
Below, each entry is listed alongside its reported TGI.

Cc1ccc(/C=C/C(=O)c2c([O-])on[n+]2-c2ccccc2)cc1 | 10.3 µM
CN1C(c2ccccc2)=CC(=O)C(O)=C(c2ccccc2)S1(=O)=O | > 100 µM
CC(C)(C)[Si](C)(C)OCCCC#CCO | > 100 µM
O=C(OCCOCBr)c1ccccc1 | > 100 µM
CN1CCC2(CC1)C(=O)N(N1CCCCCC1)C(=O)N2c1ccccc1 | > 100 µM
N#Cc1c(-c2ccccc2)/c(=C\O)c(=O)n2c1nc1ccccc12 | > 100 µM
CC1(c2ccc(Cl)cc2)CC(c2ccc(Cl)cc2)=C(C#N)C(=C(C#N)C#N)N1 (centres undefined) | 32.6 µM
Cc1cc2[nH]c3c(C#N)c(-c4ccccc4)c(N=Nc4cccc(C(F)(F)F)c4)c(=O)n3c2cc1C | > 100 µM
O=C(c1cc(Cl)cc(Cl)c1)N(C(=S)OC12CC3CC(CC(C3)C1)C2)c1ccccc1 | > 100 µM
N#Cc1ccccc1C#C/C=C\C#Cc1ccc(OCCCNC(=O)c2cc3ccccc3[nH]2)cc1 | 34 µM

Now examine the next entry.
Q: Supply measured TGI of CCC1CC2CN3CCc4c([nH]c5c(-c6c(OC)ccc7c8c([nH]c67)[C@]6(C(=O)OC)CC7CC(CC)C6N(CC8)C7)c(O)ccc45)[C@](C(=O)OC)(C2)C13 (some centres undefined) in your reply.
A: 33.4 µM

====

system: SK-MEL-28 melanoma; assay: NCI tumour cell line growth inhibition, 48 h
Readout Type: TGI

Example compounds with recorded TGI:
CCC(Sc1nnc2c3ccccc3n(CC)c2n1)C(=O)Nc1ccccc1OC (stereo not given) | > 100 µM
Cc1ccc2c(c1)NC(=O)CCSSCCC(=O)N2 | > 100 µM
COc1ccc2c3c1C(=O)CCC3CO2 (stereo not given) | > 100 µM
Nc1ccc(Nc2nc(F)nc(-c3c4ccccc4c4n3CCS4)n2)cc1 | 33.3 µM
CC(=O)OC12c3ccccc3C1CCCCCC21OCCCO1 (stereo not given) | > 100 µM

Switching to the query record.
Q: Using the record for "C/C(=N\Nc1ccc([N+](=O)[O-])cc1[N+](=O)[O-])c1ccc2ccccc2n1" , state its measured TGI.
A: > 100 µM

====

test system: MOLT-4 leukemia; assay: NCI tumour cell line growth inhibition, 48 h
Readout Type: GI50

Check out these entries, answers already filled in.
CCCN(CCC)c1ccc(CO)c(C)c1 | 26800 nM
N#Cc1ccccc1C#C/C=C\C#Cc1ccc(OCCCNC(=O)c2cc3ccccc3[nH]2)cc1 | 5230 nM
CCCCCCCCCCCCCCCc1cc(O)ccc1N | 183 nM
CCc1c2c(nc3cc4c(cc13)OCO4)-c1cc3c(c(=O)n1C2)COC(=O)[C@@]3(CC)OC(=O)CN | < 10 nM
CC(C)=CCc1c(O)cc(/C=C/c2cc(O)c3c(c2)C[C@@H]2C(C)(C)[C@H](O)[C@H](O)C[C@@]2(C)O3)cc1O | < 1 nM
COc1ccc2c(c1)c(C1(c3cn(C)c4ccc(OC)cc34)C(=O)Nc3ccc(F)cc31)cn2C | 4570 nM

Q: Determine from records and report GI50 for "Cn1c(=O)cc2c3c(c(NCCCO)ccc31)C(=O)c1ccccc1-2"
A: 2070 nM

Q: // Input: "Cn1c(COC(=O)N2CCCCC2)nc2c(N3CCOCC3)nc(-c3ccccc3)nc21" . Output its GI50 only.
A: 353 nM

Q: Supply GI50 value. Item: "CC(=O)O[C@H]1CC[C@]2(C)[C@H]3CC[C@@H]4[C@H]5[C@H](C(C)C)CC[C@]5(C(=O)OCC(CO)(CO)N=C(N)N)CC[C@@]4(C)[C@]3(C)CC[C@H]2C1(C)C"
A: 2100 nM
